- Test system: L1210 Leukämie der Maus
- ASSAY PROCEDURE: In vivo efficacy of the platinum complexes against L1210 leukaemia of the mouse
- CONDITION LABEL: treatment schedule 3 x i.p./i.p.; mean survival time vs control at optimal dose
ATTRIBUTE MEASURED: T/C % L1210 (%)
Provide only the numeric value, understood in %.

Example molecules with recorded T/C % L1210:
> print(dat)
                                   molecule            system.tested  assay.result
1  CCC(CN)(CN)COC.O=C1[O][Pt][O]C(=O)C12CC2 [Verbindung 1]  L1210 Leukämie der Maus           450
2  CCC(CN)(CN)COC.COC1C(=O)[O][Pt][O]C1=O [Verbindung 9]  L1210 Leukämie der Maus           306

Qu. Request the reported T/C % L1210 associated with CCC(CN)(CN)COC.O=C1C[O][Pt][O]1 [Verbindung 16]
Ans. 361

Qu. Request the reported T/C % L1210 associated with N.N.[Cl][Pt][Cl] [Cisplatin, reference compound]
Ans. 157

Qu. Request the reported T/C % L1210 associated with COCC(C)(CN)CN.O=C1C[O][Pt][O]1 [Verbindung 17]
Ans. 225
